MEASUREMENT_TARGET: DRB1*07:01 (Homo sapiens, UniProt P01903+P01911, A100R/A102G/A103Q/D57E/D86V/E43K/F76Y/K127E/L162R/M171V/P40G/Q125H/Q99D/R33Q/R42Y/R54Q/S133A/S66F/T210M/V115G/Y107V/Y59L/Y89S)
ASSAY_SUMMARY: REVEAL HLA-Peptide binding assay (ProImmune)
TEST_PARAMETERS: time 0 (H0); score relative to high-affinity control peptide, percentage of the control signal
Note to self: class = bucket of DRB1*07:01, per low group: < 30%; middle group: ≥ 30% and < 60%; high group: ≥ 60%

Ask: Which bin, given its DRB1*07:01, does RIHPQSWVHQIALRM [WT-2, wild-type peptide of Factor VIII C2 domain, reference compound] occupy?
Reply: middle group

Ask: Also, LTRHLRIHPQSWEHQ [Design M-8, peptide covering Y2324H, V2333E] please.
Reply: low group

Ask: Also, VNSLDPPLFTRYLRI [Design M-1, peptide covering L2321F] please.
Reply: low group
